Assay read-out Ki; system under study: LcPTR1 (Leishmania infantum, UniProt A4I067).
Sequence (A4I067 entry or part of it): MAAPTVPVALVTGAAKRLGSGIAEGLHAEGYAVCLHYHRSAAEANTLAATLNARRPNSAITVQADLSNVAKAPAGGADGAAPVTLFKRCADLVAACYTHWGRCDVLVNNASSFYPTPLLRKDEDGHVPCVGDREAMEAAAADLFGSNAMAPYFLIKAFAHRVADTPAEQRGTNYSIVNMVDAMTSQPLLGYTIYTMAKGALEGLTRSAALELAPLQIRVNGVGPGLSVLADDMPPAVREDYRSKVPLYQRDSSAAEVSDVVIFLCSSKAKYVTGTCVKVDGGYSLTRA
Please state the figure in µM; there is no need to write the unit.

>  <smiles_input>
Nc1nc(N)c2ccccc2n1

>  <test_system>
LcPTR1 (Leishmania infantum, UniProt A4I067)

>  <Ki, µM>
0.47

$$$$
>  <smiles_input>
Nc1nc(N)c(Cc2ccccc2)c(CC2CCCCC2)n1

>  <test_system>
LcPTR1 (Leishmania infantum, UniProt A4I067)

>  <Ki, µM>
2.05

$$$$
>  <smiles_input>
Nc1nc(N)c(Cc2ccccc2)c(CCCc2ccccc2)n1

>  <test_system>
LcPTR1 (Leishmania infantum, UniProt A4I067)

>  <Ki, µM>
1.5

$$$$

Q: Notebook entry, LcPTR1 (Leishmania infantum, UniProt A4I067) assay: Ki of "COc1ccccc1CCc1nc(N)nc(N)c1Cc1ccccc1" = ?
Ans: 2.3

###

# test_system: LcDHFR-TS (Leishmania infantum, UniProt Q8MQV3)
# Sequence (Q8MQV3 entry or part of it): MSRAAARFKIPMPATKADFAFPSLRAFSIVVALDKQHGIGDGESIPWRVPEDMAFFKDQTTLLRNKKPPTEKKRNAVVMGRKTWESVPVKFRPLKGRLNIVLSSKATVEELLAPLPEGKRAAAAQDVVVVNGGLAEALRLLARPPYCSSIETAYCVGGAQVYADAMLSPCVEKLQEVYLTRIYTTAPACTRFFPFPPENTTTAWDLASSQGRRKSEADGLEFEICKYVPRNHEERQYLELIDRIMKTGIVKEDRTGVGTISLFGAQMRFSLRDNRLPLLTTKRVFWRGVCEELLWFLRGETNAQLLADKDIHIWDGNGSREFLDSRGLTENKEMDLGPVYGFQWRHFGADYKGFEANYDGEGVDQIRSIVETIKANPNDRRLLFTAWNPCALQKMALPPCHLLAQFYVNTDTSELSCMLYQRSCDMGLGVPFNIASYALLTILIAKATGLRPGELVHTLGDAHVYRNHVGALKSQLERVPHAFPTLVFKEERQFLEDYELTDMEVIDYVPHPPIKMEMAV
# experiment_summary: LcDHFR-TS inhibition assay (single concentration and IC50, NADPH consumption at 340 nm)
# Format: biochemical
# condition_summary: pH 7
endpoint_name: inhibition at 50 µM (%)
Please state the figure in %; there is no need to write the unit.

Solved cases below.
>  <compound>
Nc1nc(N)c(Cc2ccccc2)c(CC2CCCCC2)n1 [Compound 2]

>  <endpoint_name>
inhibition at 50 µM

>  <value_observed>
20

$$$$
>  <compound>
Nc1nc(N)c(Cc2ccccc2)c(CCCc2ccccc2)n1 [Compound 1]

>  <endpoint_name>
inhibition at 50 µM

>  <value_observed>
100

$$$$
>  <compound>
Nc1nc(N)c2ccccc2n1 [Compound 5]

>  <endpoint_name>
inhibition at 50 µM

>  <value_observed>
20

$$$$

Now, please, on to the next compound.
Q: inhibition at 50 µM for CC(C)Cc1ccc(C(C)c2nc(N)nc(N)c2-c2ccccc2)cc1 (stereo not shown) [Compound 4] ?
Ans: 20

###

Each entry below carries its reported IC50.
# test_system: LcPTR1 (Leishmania infantum)
Please state the figure in µM; there is no need to write the unit.

>  <compound>
Nc1nc(N)c(Cc2ccccc2)c(CCCc2ccccc2)n1

>  <IC50 / µM>
3

$$$$
>  <compound>
CC(C)Cc1ccc(C(C)c2nc(N)nc(N)c2-c2ccccc2)cc1 (centres unmarked)

>  <IC50 / µM>
66.3

$$$$
>  <compound>
Nc1nc(N)c(Cc2ccccc2)c(CC2CCCCC2)n1

>  <IC50 / µM>
4.1

$$$$
>  <compound>
Nc1nc(N)c2ccccc2n1

>  <IC50 / µM>
0.94

$$$$

Now, please, on to the next compound.
Q: IC50 for "COc1ccccc1CCc1nc(N)nc(N)c1Cc1ccccc1" ?
Ans: 4.6

###

Assay read-out pIC50; system under study: LcDHFR-TS (Leishmania infantum).
Notebook: values listed as pIC50 are -log10 of the concentration (mol/L).

Solved cases below.
>  <smiles_input>
Nc1nc(N)c(Cc2ccccc2)c(CCCc2ccccc2)n1

>  <test_system>
LcDHFR-TS (Leishmania infantum)

>  <value_observed>
5.78

$$$$
>  <smiles_input>
COc1ccccc1CCc1nc(N)nc(N)c1Cc1ccccc1

>  <test_system>
LcDHFR-TS (Leishmania infantum)

>  <value_observed>
5.38

$$$$

Now, please, on to the next molecule.
Q: pIC50 for "Nc1nc(N)c(Cc2ccccc2)c(CC2CCCCC2)n1" ?
Ans: 4.74

###

Assay read-out pKi; system under study: UniProt Q8MQV3.
Notebook: values listed as pKi are -log10 of the concentration (mol/L).

Solved cases below.
>  <molecule>
Nc1nc(N)c(Cc2ccccc2)c(CCCc2ccccc2)n1 [Compound 1]

>  <test_system>
UniProt Q8MQV3

>  <value_observed>
6.55

$$$$
>  <molecule>
COc1ccccc1CCc1nc(N)nc(N)c1Cc1ccccc1 [Compound 3]

>  <test_system>
UniProt Q8MQV3

>  <value_observed>
6.15

$$$$

Now, please, on to the next molecule.
Q: Notebook entry, UniProt Q8MQV3 assay: pKi of Nc1nc(N)c(Cc2ccccc2)c(CC2CCCCC2)n1 [Compound 2] = ?
Ans: 5.52

###

# test_system: LcPTR1 (Leishmania infantum, UniProt A4I067)
# experiment_summary: LcPTR1 inhibition assay (single concentration and IC50, NADPH consumption at 340 nm)
# Type: biochemical
# condition_summary: pH 4.7
endpoint_name: inhibition at 50 µM (%)
Please state the figure in %; there is no need to write the unit.

Solved cases below.
>  <compound>
Nc1nc(N)c(Cc2ccccc2)c(CCCc2ccccc2)n1

>  <value_observed>
90

$$$$
>  <compound>
CC(C)Cc1ccc(C(C)c2nc(N)nc(N)c2-c2ccccc2)cc1 (stereo not shown)

>  <value_observed>
40

$$$$

Q: inhibition at 50 µM for "Nc1nc(N)c2ccccc2n1" ?
Ans: 98

Q: inhibition at 50 µM for "Nc1nc(N)c(Cc2ccccc2)c(CC2CCCCC2)n1" ?
Ans: 40
